Entry source: patent US8865623B2

System: Alopecurus myosuroides (ALOMY)
test description: Pre-emergence herbicidal activity, glasshouse pot test
Type: in vivo
assay setup: Alopecurus myosuroides, 312 h; Rate 250 g/ha; pre-emergence spray; evaluated after 13 days; read-out: Pre-emergence activity ALOMY (100=total damage to plant; 0=no damage to plant)
Property: pest or weed control at 250 g/ha; scope: individual compounds
Give your result in % as a bare value.

INSERT INTO measurements (input_smiles, parameter, measurement) VALUES
  ('CCc1ccc(Oc2ccc3ccccc3n2)cc1C1=C(O)C(C)(C)OC(C)(C)C1=O', 'pest or weed control at 250 g/ha', 80),
  ('CCc1ccc(Oc2cnc3cc(Cl)ccc3n2)cc1C1=C(O)[C@H]2CC[C@H](C2)C1=O', 'pest or weed control at 250 g/ha', 100),
  ('CCc1ccc(Oc2ccc([N+](=O)[O-])c(Cl)c2)cc1C1=C(O)CC(C)(C)CC1=O', 'pest or weed control at 250 g/ha', 60);

Attention now shifts to the item below.
Please give the documented pest or weed control at 250 g/ha of Cc1ccc(Oc2ccc(Cl)cc2)cc1C1=C(O)C(C)(C)OC(C)(C)C1=O
0
